- study target: T1, Nluc-IL23R fusion protein (human, UniProt Q5VWK5 22-629)
- T1 construct: range 22-629; expressed with a secretion signal in HEK293 cells; used as crude membrane preparation; also called hIL-23R; human IL-23R; not shown: Nanoluc protein from the expression plasmid N1371 (Promega), N-terminal of IL-23R
- T1 sequence (looked up): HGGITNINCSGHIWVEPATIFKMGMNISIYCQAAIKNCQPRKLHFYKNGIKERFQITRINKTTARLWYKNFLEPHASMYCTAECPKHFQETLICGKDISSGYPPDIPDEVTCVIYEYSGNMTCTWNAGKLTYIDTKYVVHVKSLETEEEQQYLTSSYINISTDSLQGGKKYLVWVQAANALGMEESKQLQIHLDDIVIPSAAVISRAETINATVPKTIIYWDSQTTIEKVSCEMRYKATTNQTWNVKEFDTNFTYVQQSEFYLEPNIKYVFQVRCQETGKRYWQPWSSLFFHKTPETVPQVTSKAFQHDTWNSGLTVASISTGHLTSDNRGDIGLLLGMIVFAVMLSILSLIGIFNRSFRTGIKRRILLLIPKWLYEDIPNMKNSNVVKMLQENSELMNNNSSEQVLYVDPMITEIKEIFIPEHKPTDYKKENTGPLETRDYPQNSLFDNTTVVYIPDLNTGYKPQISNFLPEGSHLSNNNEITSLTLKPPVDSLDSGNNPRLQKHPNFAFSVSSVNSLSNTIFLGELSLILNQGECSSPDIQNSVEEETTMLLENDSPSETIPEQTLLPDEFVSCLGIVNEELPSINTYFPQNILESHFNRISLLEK
- assay method text: Ki from BRET competition (Cheng-Prusoff), Nluc-IL23R membranes
Bridges are numbered along the chain shown (N, C = ends). [ ]: non-standard residue; d: D form. 2Nal = N[C@@H](Cc1ccc2ccccc2c1)C(=O)O; AEF = NCCOc1ccc(C[C@H](N)C(=O)O)cc1; αMeL = CC(C)C[C@](C)(N)C(=O)O; 3Amb = NCc1cccc(C(=O)O)c1
readout: pKi
pKi is defined as minus the log10 of a concentration measured in mol/L.

The binder identified as [3Amb]SCWQC[AEF][2Nal][αMeL]E[dR]-NH2 (lactam N-10; bridge 3-6; not fully specified (bridges); printed as [(3-Aminomethyl)benzoyl](1c)*SC(2a)WQC(2a)[Y(2-aminoethoxy)][2-Nal][2-Me-Leu]E(1c)[{d}R]-[NH2], Y = Y(2-aminoethoxy), R = D-Arg) [Ref 41] registered its pKi at 8.64
